// provenance: patent US20230365563A1

# targetOrTestSystem: KRAS_G12D and cRAF (Homo sapiens, UniProt P01116, G12D)
# Sequence (P01116 1-188 isoform P01116-2 G12D): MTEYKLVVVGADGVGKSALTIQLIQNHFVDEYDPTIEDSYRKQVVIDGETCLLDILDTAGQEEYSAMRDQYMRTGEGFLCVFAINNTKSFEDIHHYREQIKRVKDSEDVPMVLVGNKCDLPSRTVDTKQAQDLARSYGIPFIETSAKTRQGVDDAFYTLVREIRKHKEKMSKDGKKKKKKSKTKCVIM
# methodDescription: Inhibition of KRAS_G12D/cRAF binding (Cisbio binding kit, 665/615 ratio), Effect Embodiment B
# conditionParameters: read-out: GTP-KRAS-G12D:CRAF IC50
Counter-ions that a name gives are not always drawn.
Please use yes (1) for IC50 under 50 nM and no (0) for everything else, ties included.

Find out if reported IC50 for CN(C)C1CN(c2nc(N3C[C@@H]4C[C@H]3CN4)c3cc(Cl)c(-c4cc(O)cc5ccccc45)c(F)c3n2)C1 (single isomer, unassigned) is less than 50 nM no (0)

Find out if reported IC50 for Oc1cc(-c2c(Cl)cc3c(N4CC5CCC(C4)N5)nc(OCCCN4C5CCC4COC5)nc3c2F)c2cc(F)ccc2c1 (single isomer, unassigned) is less than 50 nM yes (1)

Find out if reported IC50 for CN(C)C1CN(c2nc(N3CC4(CCNC4)C3)c3cc(Cl)c(-c4cc(O)cc5ccccc45)c(F)c3n2)C1 (single isomer, unassigned) is less than 50 nM no (0)

Find out if reported IC50 for CN(C)CCCOc1nc(N2C[C@H]3CC[C@@H](C2)N3)c2cc(Cl)c(-c3cc(O)cc4ccccc34)c(F)c2n1 (single isomer, unassigned) [Compound 40a] is less than 50 nM no (0)

Find out if reported IC50 for CN1C[C@H](F)C[C@H]1COc1nc(N2CC3CCC(C2)N3)c2cnc(-c3cc(O)cc4ccccc34)c(F)c2n1 is less than 50 nM yes (1)

Find out if reported IC50 for C[C@H]1C[C@@H](COc2nc(N3CC4CCC(C3)N4)c3cc(Cl)c(-c4cc(O)cc5ccccc45)c(F)c3n2)N(C)C1 (single isomer, unassigned) is less than 50 nM yes (1)

Find out if reported IC50 for Oc1cc(-c2c(Cl)cc3c(N4CC5CCC(C4)N5)nc(OCCCN4CCCCC4)nc3c2F)c2ccccc2c1 (single isomer, unassigned) [Compound 66a] is less than 50 nM no (0)

Find out if reported IC50 for C=CCCOCCCN1CCC[C@H]1COc1nc(N2CC3CCC(C2)N3)c2cc(F)c(-c3cc(O)cc4ccc(F)c(CC)c34)c(F)c2n1 (single isomer, unassigned) [Compound 249, dihydrochloride] is less than 50 nM yes (1)

Find out if reported IC50 for CCN(C)CCCOc1nc(N2CC3CCC(C2)N3)c2cc(Cl)c(-c3cc(O)cc4ccccc34)c(F)c2n1 (single isomer, unassigned) [Compound 49a] is less than 50 nM no (0)

Find out if reported IC50 for Oc1cc(-c2c(Cl)cc3c(N4CC5CCC(C4)N5)nc(OCC4CCC5COCCN5C4)nc3c2F)c2ccccc2c1 (single isomer, unassigned) [Compound 264a] is less than 50 nM yes (1)

Find out if reported IC50 for Oc1cc(-c2c(Cl)cc3c(N4CC5CCC(C4)N5)nc(OCCCN4CC5CCC4CO5)nc3c2F)c2ccccc2c1 (single isomer, unassigned) [Compound 187a] is less than 50 nM no (0)

Find out if reported IC50 for CCc1cccc2cc(O)cc(-c3c(F)cc4c(N5CC6CCC(C5)N6)nc(OCCCN5C[C@@H](C)O[C@@H](C)C5)nc4c3F)c12 (single isomer, unassigned) [Compound 283a, dihydrochloride] is less than 50 nM yes (1)

Find out if reported IC50 for Oc1cc(-c2c(Cl)cc3c(N4CC5CCC(C4)N5)nc(OCC4(CN5CCCC5)CC4)nc3c2F)c2ccccc2c1 (single isomer, unassigned) is less than 50 nM yes (1)

Find out if reported IC50 for CN(CCCCN1CCN(CCCCN)CC1)CCCOc1nc(N2CC3CCC(C2)N3)c2cc(Cl)c(-c3cc(O)cc4ccccc34)c(F)c2n1 (single isomer, unassigned) is less than 50 nM no (0)

Find out if reported IC50 for CC(COc1nc(N2CC3CCC(C2)N3)c2cc(Cl)c(-c3cc(O)cc4ccccc34)c(F)c2n1)CN1C2CCC1COC2 (single isomer, unassigned) [Compound 178a] is less than 50 nM yes (1)

Find out if reported IC50 for CN(C)C1CN(c2nc(N3CC4CCC(C3)N4)c3cc(Cl)c(-c4cc(O)cc5cccc(F)c45)c(F)c3n2)C1 (single isomer, unassigned) [Compound 64b] is less than 50 nM no (0)

Find out if reported IC50 for Oc1cc(Cl)c(C2CC2)c(-c2c(Cl)cc3c(N4CC5CCC(C4)N5)nc(OC[C@@]45CCCN4C[C@H](F)C5)nc3c2F)c1 (single isomer, unassigned) [Compound 198a] is less than 50 nM yes (1)

Find out if reported IC50 for Oc1cc(-c2c(Cl)cc3c(N4CC5CCC(C4)N5)nc(OC[C@@]45CCCN4C[C@H](F)C5)nc3c2F)c2c(F)c(F)ccc2c1 (single isomer, unassigned) [Compound 214a] is less than 50 nM yes (1)

Find out if reported IC50 for Oc1cc(-c2c(Cl)cc3c(N4CC5CCC(C4)N5)nc(OCC4(CN5C6CCC5COC6)CC4)nc3c2F)c2ccccc2c1 (single isomer, unassigned) is less than 50 nM yes (1)

Find out if reported IC50 for Oc1cc(-c2c(Cl)cc3c(N4CC5CCC(C4)N5)nc(OCC(F)(F)CN4CCCC4)nc3c2F)c2ccccc2c1 (single isomer, unassigned) [Compound 107, dihydrochloride] is less than 50 nM no (0)
